- Target Entity: Ghrelin receptor (Homo sapiens, UniProt Q92847)
- Sequence (Q92847 whole entry): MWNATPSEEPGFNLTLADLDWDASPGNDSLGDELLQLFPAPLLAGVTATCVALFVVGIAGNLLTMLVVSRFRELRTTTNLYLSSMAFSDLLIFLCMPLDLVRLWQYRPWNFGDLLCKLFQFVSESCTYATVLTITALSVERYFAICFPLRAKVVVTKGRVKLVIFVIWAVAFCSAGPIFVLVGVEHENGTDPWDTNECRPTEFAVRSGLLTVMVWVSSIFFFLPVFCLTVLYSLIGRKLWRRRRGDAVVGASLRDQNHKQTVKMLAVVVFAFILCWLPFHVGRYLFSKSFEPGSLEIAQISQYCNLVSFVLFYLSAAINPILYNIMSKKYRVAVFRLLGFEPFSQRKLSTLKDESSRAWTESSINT
- Procedure Details: Receptor Selection and Amplification Technology (R-SAT) assay
- Assay type: cell-based
- Design: expressed in transfected cells; host or cells: NIH3T3
- Applied Conditions: read-out: RSAT Eff(%)
Decide using Emax alone. Strictly below 60%: T. Equal to or above 60%: F.

- Compound: "COc1cccc2c(C(=O)NCC(C)C)cn(CCCN3CCN(Cc4ccc(Cl)cc4Cl)CC3)c12"
  Class Label: "F"

// query # strict comparison: is reported Emax < 60%? input = COc1cccc2c(C(=O)c3ccccc3)cn(CCCNC3Cc4ccccc4C3)c12
// result F

====

For each entry below, report its Emax value.
- Target Entity: UniProtKB Q92847
- Procedure Details: Receptor Selection and Amplification Technology (R-SAT) assay
- Format: cell-based
- Set-up: expressed in transfected cells; host or cells: NIH3T3
- Applied Conditions: read-out: RSAT Eff(%)

Some entries whose results are on file:
- Compound: "COc1cccc2c(C(=O)c3ccccc3)cn(CCCN3C4CCC3CC(Oc3ccc(F)cc3)C4)c12 (stereo not shown)"
  Emax: "106%"
- Compound: "COc1cccc2c(C(=O)Cc3ccccc3)cn(CCCN3C4CCC3CC(Oc3ccc(F)cc3)C4)c12 (stereo not shown)"
  Emax: "99%"
- Compound: "COc1cccc2c(C(=O)NCC(C)C)cn(CCCN3CCCN(CCc4ccccc4)CC3)c12"
  Emax: "114%"
- Compound: "COc1cccc2c(C(=O)c3ccccc3)cn(CCCN3C4CCC3CC(CC(=O)c3ccc(Cl)cc3)C4)c12 (stereo not shown)"
  Emax: "143%"
- Compound: "CCCCC1CCN(CCCn2cc(C(=O)NCc3cccc(C)c3)c3cccc(OC)c32)CC1"
  Emax: "72%"

Batch: Emax for all items listed.
1. COc1cccc2c(C(=O)NCC(C)C)cn(CCCN3CCN(CCOc4ccccc4)CC3)c12
2. COc1cccc2c(C(=O)NCC(C)C)cn(CCCN3CCC(C(=O)c4ccccc4)CC3)c12
3. CCCOC1CCN(CCCn2cc(C(=O)CC)c3cc(Br)ccc32)CC1
4. CCc1cccc2c(C(C)=O)cn(CCCN3CCN(CCOc4ccc(Cl)cc4)CC3)c12

// result
1. 118%
2. 114%
3. 90%
4. 24%

List the reported Emax of each compound below.
1. CCCCC1CCN(CCCCn2cc(C(C)=O)c3ccccc32)CC1
2. COc1cccc2c(C(C)=O)cn(CC(C)CN3C4CCC3CC(CC(=O)c3ccc(Cl)cc3)C4)c12 (stereo not shown)
3. COc1cccc2c(C(=O)NCc3cccc(Cl)c3)cn(CCCN3CCCC(Cc4ccccc4Cl)C3)c12 (stereo not shown)
4. COc1cccc2c(C(=O)C3CC3)cn(CCCN3C4CCC3CC(CC(=O)c3ccccc3)C4)c12 (stereo not shown)
5. CCc1cccc2c(C(C)=O)cn(CCCN3C4CCC3CC(CCc3ccccc3)C4)c12 (stereo not shown)
6. CC(=O)c1cn(CCCN2CCC(c3nc4ccccc4s3)CC2)c2c(Cl)cccc12

// result
1: 113%; 2: 16%; 3: 47%; 4: 86%; 5: 103%; 6: 117%

For every item below, please supply its Emax.
1. COc1ccccc1C1CCN(CCCn2cc(C(=O)NCc3cccc(C)c3)c3cccc(OC)c32)CC1
2. CC(=O)c1cn(CCCN2CCCC(Cc3ccccc3Cl)C2)c2c(Br)cccc12 (stereo not shown)
3. CC(=O)c1cn(CCCN2C3CCC2CC(CCc2ccccc2)C3)c2c(C#N)cccc12 (stereo not shown)
4. CC(=O)c1cn(CCCCN2CCC(C(=O)c3ccccc3)CC2)c2ccccc12

// result
1. 127%
2. -18%
3. 106%
4. 38%
